Sourced from ChEMBL document CHEMBL1201862

Tested on: U-251
test description: NCI tumour cell line growth inhibition, 48 h
Active and inactive are the calls of the source. No stated cut-off is given here; in the data, active = GI50 up to about 1.1 µM and inactive = higher.
# valid calls are true for active, false for inactive; nothing else

q: Assay outcome for Cc1c(C)c(S(=O)(=O)N(CCCN)OCCCN)c(C)c2c1OC(C)(C)CC2 : what was it?
a: false

q: Assay outcome for CCc1nc(N)nc(N)c1-c1ccc2nnn(O)c2c1 : what was it?
a: false

q: Assay outcome for COc1cc(O)c2c(=O)c(O)c(-c3ccc(O)c(O)c3)oc2c1 : what was it?
a: false

q: Assay outcome for O=C(/C=N/O)Nc1ccc(Cl)c(I)c1 : what was it?
a: false

q: Assay outcome for O=C(Nc1sccc1S(=O)(=O)c1ccc(Cl)cc1)c1ccccc1 : what was it?
a: false

q: Assay outcome for O=C(/C=C/c1ccc([N+](=O)[O-])cc1)N1CCN(CCOC(c2ccc(F)cc2)c2ccc(F)cc2)CC1 : what was it?
a: false

q: Assay outcome for N#C/C(=C1\SC(/N=N/c2ccccc2)C(=O)N1c1ccccc1)c1nc2ccccc2[nH]1 (stereo not drawn) : what was it?
a: false

q: Assay outcome for CCN(CC)CCO/N=C1/C=C2CCC3C(CC[C@@]4(C)C3CC[C@]4(C)O)[C@@]2(C)CC1 (stereo partly drawn) : what was it?
a: false

q: Assay outcome for Cc1c2c(n3c(nc4ccccc43)c1C#N)N(c1ccc(F)cc1)CC2 : what was it?
a: false

q: Assay outcome for Cc1ccc(S(=O)(=O)OC2CSSCC2OS(=O)(=O)c2ccc(C)cc2)cc1 (stereo not drawn) : what was it?
a: false

q: Assay outcome for Cc1nc(N)nc(N)c1CCCc1ccccc1 : what was it?
a: false

q: Assay outcome for COc1cc(OC)c2c(=O)c(O)c(-c3ccc(OC)c(OC)c3)oc2c1 : what was it?
a: false

q: Assay outcome for COc1c2cc(C(C)(C)C)cc1Cc1cccc(c1OCc1cccc([N+](=O)[O-])c1)Cc1cc(C(C)(C)C)cc(c1OC)Cc1cccc(c1OCc1cccc([N+](=O)[O-])c1)Cc1cc(C(C)(C)C)cc(c1OC)Cc1cccc(c1OCc1cccc([N+](=O)[O-])c1)C2 : what was it?
a: false

q: Assay outcome for Clc1cccc(C2N3CCCCC3[C@@H]3c4[nH]c5ccccc5c4CCN23)c1 (stereo partly drawn) : what was it?
a: false

q: Assay outcome for CC1C2(C)OCC(C#N)(C(=N)O2)C1(C#N)C#N (stereo not drawn) : what was it?
a: false

q: Assay outcome for COc1cc2oc(-c3ccc(O)cc3O)c(CC=C(C)C)c(=O)c2c(O)c1/C=C/C(C)C : what was it?
a: false

q: Assay outcome for COc1cc(C2c3cc4c(cc3[C@@H](Nc3ccc5c(c3)OCCO5)C3COC(=O)[C@H]23)OCO4)cc(OC)c1O (stereo partly drawn) : what was it?
a: true

q: Assay outcome for NC(=S)Nc1nnc(-c2ccc(-c3nnc(NC(N)=S)o3)cc2)o1 : what was it?
a: false

----------
System: NCI-H522
test description: NCI tumour cell line growth inhibition, 48 h
The source made the active and inactive calls. No stated cut-off is given here; in the data, active = GI50 up to about 1.1 µM and inactive = higher.
# valid calls are label 1 (active), label 0 (inactive); nothing else

q: Assay outcome for CCOC(=O)c1nc2c3c(ncn2n1)Oc1c(c(-c2ccccc2)nn1-c1ccccc1)C3c1ccc(OC)c(OC)c1 (centres undefined) : what was it?
a: label 0

q: Assay outcome for Oc1cccc(/C=N/N=c2/[nH][nH]/c(=N/N=C/c3cccc(O)c3)c3ccccc23)c1 : what was it?
a: label 0

q: Assay outcome for CC(=O)O/C(C)=C\C(=O)O/N=C(\N)c1ccc(C)cc1 : what was it?
a: label 0

q: Assay outcome for COc1ccccc1-c1cc(O)c2ccc(C)nc2n1 : what was it?
a: label 0

q: Assay outcome for CN(C)C(=S)N/N=C\C=N/NC(=S)N(C)C : what was it?
a: label 1

q: Assay outcome for CC(=O)NC(=N/N=C1/C(=O)Nc2ccc(C)cc21)NC(C)=O : what was it?
a: label 0

q: Assay outcome for O=C(/C=C/c1ccc([N+](=O)[O-])cc1)N1CCN(CCOC(c2ccc(F)cc2)c2ccc(F)cc2)CC1 : what was it?
a: label 0

q: Assay outcome for COc1cccc(C2c3cc4c(cc3OC(NNC(N)=O)C2C)OCO4)c1OC (centres undefined) : what was it?
a: label 0

q: Assay outcome for O=C(O)c1cccc(OCCOc2cccc(C(=O)O)c2[N+](=O)[O-])c1[N+](=O)[O-] : what was it?
a: label 0

q: Assay outcome for COc1c2cc(C(C)(C)C)cc1Cc1cccc(c1OCc1cccc([N+](=O)[O-])c1)Cc1cc(C(C)(C)C)cc(c1OC)Cc1cccc(c1OCc1cccc([N+](=O)[O-])c1)Cc1cc(C(C)(C)C)cc(c1OC)Cc1cccc(c1OCc1cccc([N+](=O)[O-])c1)C2 : what was it?
a: label 0

q: Assay outcome for COc1cc(OC)c2ssc3c(OC)cc(OC)c4ssc1c2-c43 : what was it?
a: label 0

q: Assay outcome for CN1C(=O)c2ccc3ccccc3c2C1=O : what was it?
a: label 0

q: Assay outcome for CCOP(=O)(Nc1ccc(-c2ccccc2)cc1)OCC : what was it?
a: label 0

q: Assay outcome for O=C1c2ccccc2C2(Br)C(=O)c3ccccc3C12 (centres undefined) : what was it?
a: label 0

q: Assay outcome for O=C(O)C(Cc1ccccc1)N1C(=O)N/C(=C\c2ccc(F)cc2)C1=O (centres undefined) : what was it?
a: label 0

q: Assay outcome for COC(=O)[C@]12CC=C3O[C@@H]4OC5(CCCCC5)O[C@@H]4[C@H]3C1C(=O)C=CC2=O (some centres undefined) : what was it?
a: label 0

q: Assay outcome for CCO[C@@H]1OC(=O)[C@@](C)(C(C)=O)[C@@H]1C : what was it?
a: label 0

q: Assay outcome for Cc1c(C)c(S(=O)(=O)N(CCCN)OCCCN)c(C)c2c1OC(C)(C)CC2 : what was it?
a: label 0

q: Assay outcome for CCOC(=O)N1CC2(C)C=CC1C(C(=O)OC)C2 (centres undefined) : what was it?
a: label 0

q: Assay outcome for Nc1c(C(=O)N/N=C/c2ccc(Cl)cc2)sc(=S)n1-c1ccccc1 : what was it?
a: label 0

q: Assay outcome for O=CC(I)=C(c1ccccc1)c1ccccc1 : what was it?
a: label 0

q: Assay outcome for O/N=C1\CC2(N3CCOCC3)CCC1(c1ccccc1)CC2 : what was it?
a: label 0

q: Assay outcome for CN(C)C(=S)/N=c1\ssc(=S)n1Cc1ccco1 : what was it?
a: label 1

q: Assay outcome for Fc1ccc(F)c(C2SCc3nc4ccccc4n32)c1 (centres undefined) : what was it?
a: label 0

q: Assay outcome for N#CC(c1ccccc1)N(CCc1ccccc1)C(=O)c1ccccc1 (centres undefined) : what was it?
a: label 0

q: Assay outcome for CC[C@H](C)[C@H]1NC(=O)[C@@H](NC(=O)[C@@H](CC(C)C)N(C)C(=O)C2CCCN2C(=O)[C@H](C)O)[C@@H](C)OC(=O)[C@H](Cc2ccccc2)N(C)C(=O)[C@@H]2CCCN2C(=O)[C@H](CC(C)C)NC(=O)[C@@H](C)C(=O)[C@H](C(C)C)OC(=O)C[C@@H]1O (some centres undefined) : what was it?
a: label 1

q: Assay outcome for O=C(CC1(O)C(=O)Nc2ccc([N+](=O)[O-])cc21)c1ccc2ccccc2c1 (centres undefined) : what was it?
a: label 0

q: Assay outcome for N#CC1C(=O)N(c2ccccc2)NC12OC(=O)c1ccncc12 (centres undefined) : what was it?
a: label 0

q: Assay outcome for N#CCCN(CCC#N)C(=O)c1cccc(C(=O)N(CCC#N)CCC#N)c1 : what was it?
a: label 0

q: Assay outcome for N#Cc1c(N2CCCC2)ncn(-c2ccccc2)c1=O : what was it?
a: label 0

q: Assay outcome for O=S(=O)(CCC[C@H]1[C@@H](CCOCc2ccccc2)C2CCCN1O2)c1ccccc1 (some centres undefined) : what was it?
a: label 0

q: Assay outcome for c1ccc(C2CC(c3ccc4ccccc4c3)=Nc3ccccc3S2)cc1 (centres undefined) : what was it?
a: label 0

q: Assay outcome for C#CC[C@]12CC(=O)CC[C@H]1CC1(C2)OCCO1 : what was it?
a: label 0

q: Assay outcome for O=[N+]([O-])c1nccn1CC(O)CN1CC1 (centres undefined) : what was it?
a: label 0
